Measured Metric: melting point

Use these answered entries as a reference point.
[
  {
    "Molecule": "CCCCCC(=O)NS(=O)(=O)c1ccccc1NC(=O)c1ccc(C#Cc2ccc(C(F)(F)F)cc2)cc1",
    "melting point": "210 to 212 °C"
  },
  {
    "Molecule": "CC(=O)CCCC(=O)NS(=O)(=O)c1ccccc1NC(=O)c1ccc(C#Cc2cccc(C(F)(F)F)c2)cc1",
    "melting point": "169 to 171 °C"
  },
  {
    "Molecule": "CCCOCC(=O)NS(=O)(=O)c1ccccc1NC(=O)c1ccc(C#Cc2cccc(C(F)(F)F)c2)cc1",
    "melting point": "175 to 177 °C"
  },
  {
    "Molecule": "CCCCCC(=O)NS(=O)(=O)c1ccccc1NC(=O)c1ccc(C#Cc2cccc(F)c2)cc1",
    "melting point": "183 to 186 °C"
  },
  {
    "Molecule": "CCCCCC(=O)NS(=O)(=O)c1ccccc1NC(=O)c1ccc(C#Cc2cccc(C(F)(F)F)c2)cc1",
    "melting point": "194 to 196 °C"
  }
]

Fill in melting point for each of the 4 compounds listed.
1. CCCCCC(=O)NS(=O)(=O)c1ccccc1NC(=O)c1ccc(C#Cc2ccc(OC(F)(F)F)cc2)cc1
2. CC(=O)CCCC(=O)NS(=O)(=O)c1ccccc1NC(=O)c1ccc(C#Cc2ccc(OC(F)(F)F)cc2)cc1
3. CC(=O)CCCC(=O)NS(=O)(=O)c1ccccc1NC(=O)c1ccc(C#Cc2ccc(F)cc2)cc1
4. CCCCCC(=O)NS(=O)(=O)c1ccccc1NC(=O)c1ccc(C#Cc2ccc(F)cc2)cc1

1. 197 to 199 °C
2. 204 to 205 °C
3. 179 to 181 °C
4. 183 to 186 °C
